Each record here notes measured IC50.
# STUDY_SYSTEM: CLK4 (Homo sapiens, UniProt Q9HAZ1)
# Construct: purchased Eurofins DiscoverX (contract service)
# Sequence (Q9HAZ1 whole entry): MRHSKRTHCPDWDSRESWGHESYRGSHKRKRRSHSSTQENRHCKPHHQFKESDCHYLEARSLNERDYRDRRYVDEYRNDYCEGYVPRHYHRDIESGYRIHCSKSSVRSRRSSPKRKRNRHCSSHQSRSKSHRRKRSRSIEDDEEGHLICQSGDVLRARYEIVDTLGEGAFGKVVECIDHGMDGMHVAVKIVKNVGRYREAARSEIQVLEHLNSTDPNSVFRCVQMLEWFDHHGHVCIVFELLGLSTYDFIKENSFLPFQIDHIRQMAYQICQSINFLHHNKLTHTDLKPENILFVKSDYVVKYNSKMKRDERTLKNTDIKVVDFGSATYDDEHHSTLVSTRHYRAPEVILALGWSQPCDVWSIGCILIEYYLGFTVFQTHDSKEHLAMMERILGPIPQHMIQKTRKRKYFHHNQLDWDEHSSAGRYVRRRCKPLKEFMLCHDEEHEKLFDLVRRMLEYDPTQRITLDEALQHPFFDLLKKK
# PROTOCOL_DESCRIPTION: Kinase inhibition assay (Eurofins DiscoverX KinaseProfiler / KdElect), CLK4
# Format: biochemical

Would you please look over these solved cases?
## Task IC50 lookup needed for "COc1cc2c(Nc3cc(C(C)(C)C)[nH]n3)nc(N3CCC(F)(F)CC3)nc2cc1OCCCN1CCCC1" , thanks.
## Result < 1000 nM

## Task IC50 lookup needed for "COc1cc2c(Nc3cc(C4CC4)[nH]n3)nc(N3CCC(F)(F)CC3)nc2cc1OCCCN1CCCC1" , thanks.
## Result < 1000 nM

## Task IC50 lookup needed for "COc1cc2c(Nc3cc(C(C)C)[nH]n3)nc(N3CCC(F)(F)CC3)nc2cc1OCCCN1CCCC1" , thanks.
## Result < 1000 nM

## Task IC50 lookup needed for "COc1cc2c(Nc3cc(C4CCC4)[nH]n3)nc(N3CCC(F)(F)CC3)nc2cc1OCCCN1CCCC1" , thanks.
## Result < 1000 nM

## Task IC50 lookup needed for "COc1cc2c(Nc3cc(C)[nH]n3)nc(N3CCC(F)(F)CC3)nc2cc1OCCCN1CCCC1" , thanks.
## Result < 1000 nM

## Task IC50 lookup needed for "CCc1cc(Nc2nc(N3CCC(F)(F)CC3)nc3cc(OCCCN4CCCC4)c(OC)cc23)n[nH]1" , thanks.
## Result < 1000 nM

More entries:
## Task IC50 lookup needed for "COc1cc2c(Nc3cc(C)[nH]n3)nc(N3CCC3)nc2cc1OCCCN1CCCC1" , thanks.
## Result 5000 to 10000 nM

## Task IC50 lookup needed for "COc1cc2c(Nc3cc(C)[nH]n3)nc(N3CCCC3)nc2cc1OCCCN1CCCC1" , thanks.
## Result 5000 to 10000 nM

## Task IC50 lookup needed for "COc1cc2c(Nc3ncc(C)s3)nc(N3CCC(F)(F)CC3)nc2cc1OCCCN1CCCC1" , thanks.
## Result < 1000 nM
